Values from paper PMC7115513

The following compounds are listed with their measured Cytotoxicity MIC values.
Test system: Madin Darby canine kidney (MDCK) cells
settings: dog

{"compound": "CCOC(=O)c1c(C)nc(NCCNc2ccnc3cc(Cl)ccc23)nc1-c1ccccc1 [Compound 10a]", "Cytotoxicity MIC": "0.8 µM"}
{"compound": "CCOC(=O)c1c(C)nc(NCCCNc2ccnc3cc(Cl)ccc23)nc1-c1ccccc1 [Compound 10b]", "Cytotoxicity MIC": "0.8 µM"}
{"compound": "Cc1nc(NCCCCNc2ccnc3cc(Cl)ccc23)nc(-c2ccccc2[N+](=O)[O-])c1C(=O)OC(C)C [Compound 10r]", "Cytotoxicity MIC": "4.0 µM"}
{"compound": "CCOC(=O)c1c(C)nc(NCCCCNc2ccnc3cc(Cl)ccc23)nc1-c1ccccc1 [Compound 10c]", "Cytotoxicity MIC": "0.8 µM"}
{"compound": "CCOC(=O)c1c(C)nc(NCCCNc2ccnc3cc(Cl)ccc23)nc1C [Compound 10l]", "Cytotoxicity MIC": "20 µM"}
{"compound": "Cc1nc(NCCCNc2ccnc3cc(Cl)ccc23)nc(-c2cccc([N+](=O)[O-])c2)c1C(=O)OC(C)C [Compound 10n]", "Cytotoxicity MIC": "0.8 µM"}
{"compound": "CCOC(=O)c1c(C)nc(NCCCCNc2ccnc3cc(Cl)ccc23)nc1C [Compound 10m]", "Cytotoxicity MIC": "4 µM"}
{"compound": "Cc1nc(NCCNc2ccnc3cc(Cl)ccc23)nc(-c2ccccc2[N+](=O)[O-])c1C(=O)OC(C)C [Compound 10p]", "Cytotoxicity MIC": "≥0.8 µM"}
